- Tested on: OVCAR-4 ovarian
- method-description: NCI-60 one-dose screen, 48 h (100 = growth as untreated, 0 = no growth, -100 = all killed)
- assay-setup: 10 µM unless noted
The panel holds about 83,000 compounds, 20% with a hit somewhere; the sample as a whole holds those more often.
readout-type: growth (%)
Give the quantity in %, number only.

# growth lookup, item `C(=N/Nc1ncnc2nc[nH]c12)/c1ccccn1`
31.9

Subsequent entry: `O=c1c2cc(F)ccc2sc2c(N3CCCCC3)nc3ccccc3c12`
116

Subsequent entry: `CCCCCCn1c(-c2ccc(C(=O)O/N=C(\N)c3ccc4c(c3)OCO4)cc2)nc(-c2ccccc2)c1-c1ccccc1`
39.6

Subsequent entry: `O=C(O)c1cn(C2CC2)c2cc(N3CCN(C(=O)Nc4nc(-c5ccc(Cl)cc5)cs4)CC3)c(F)cc2c1=O`
23.7

Subsequent entry: `COc1cccc(Cc2cc(-c3ccccc3)nn(CC(=O)c3ccccc3)c2=O)c1`
69.5

Subsequent entry: `CCOC(=O)c1c(C)oc2ncnc(N3CCN(C(=O)COc4ccc(C(C)(C)C)cc4)CC3)c12`
74.4

Subsequent entry: `COc1ccc(-c2nc(NN)c3c(C)nn(-c4ccc(F)cc4)c3n2)cc1`
62.7

Subsequent entry: `O=c1c2cccc(F)c2sc2c(NCCCNCCO)nc3ccccc3c12`
34.9

Subsequent entry: `C[C@H](C(=O)Nc1ccc(S(N)(=O)=O)cc1)S(=O)(=O)c1ccccc1`
105

Subsequent entry: CC(=O)OC[C@H]1OC(Sc2sc(C(=O)c3ccc(C)cc3)c(N)c2-c2nc3ccccc3s2)[C@H](OC(C)=O)[C@@H](OC(C)=O)[C@@H]1OC(C)=O (stereo partly drawn)
-13.9

Subsequent entry: `COC(=O)/C=C1\S/C(=N\Nc2ccc([N+](=O)[O-])cc2[N+](=O)[O-])N(C2CCCCC2)C1=O`
47.1

Subsequent entry: `COc1cc(CNS(=O)(=O)c2ccc(C)cc2)ccc1OCc1cn(-c2ccccc2)nn1`
56.8

Subsequent entry: `Cc1ccc(-c2nc(N3CCN(C(=O)Nc4ccc(Cl)c(C(F)(F)F)c4)CC3)c3ccccc3n2)cc1`
77.8

Subsequent entry: `Cc1cccc2c(=O)c3c(sc12)c(NCc1ccccc1)nc1ccccc13`
87.6

Subsequent entry: `CCc1ccc2nc(NC(=O)Cc3csc(NC(=O)c4ccco4)n3)sc2c1`
43.1

Subsequent entry: `COc1ccc2c(c1)c(-c1nn3cc(-c4cccs4)nc3s1)cn2C`
70.6

Subsequent entry: `COc1cccc(Cc2nn3cc(-c4ccccc4)nc3s2)c1`
98.4

Subsequent entry: `CN1CCN(CC(=O)N2c3cccc4cccc(c34)N(C(=O)CN3CCN(C)CC3)C2c2cn(-c3ccccc3)nc2-c2cccc([N+](=O)[O-])c2)CC1`
-21.8

Subsequent entry: CCOC(=O)C1=C(N)Oc2c(sc3c(CC)cccc23)C1c1ccc(F)cc1 (stereo not drawn)
58.7

Subsequent entry: `COc1ccc(-c2c(C(=O)NS(C)(=O)=O)n(Cc3cccc(C(F)(F)F)c3)c3ccccc23)cc1`
96.1

Subsequent entry: `COc1ccc2c(c1)nc(NNC(=O)c1cnccn1)c1cccn12`
17.5

Subsequent entry: `c1ccc(OCc2nnc(-c3ccc(Oc4ccccc4)cc3)o2)cc1`
98.7

Subsequent entry: CNc1nc2c(s1)C(c1cc(F)ccc1F)CC(=O)N2 (stereo not drawn)
83.2

Subsequent entry: `O=C(Nn1c(NCC(=O)N2c3ccccc3Sc3ccccc32)nnc1-c1ccc(O)cc1)c1ccccc1`
105

Subsequent entry: `O=C1COCCN1c1ccc(NCc2cn(C(=O)c3ccc(Cl)cc3)c3ccccc23)cc1`
3.22

Subsequent entry: `Cc1ccc2nc(NC(=O)CSc3nc(Cl)c(C#N)c(-c4ccccc4)n3)sc2c1`
105

Subsequent entry: `COc1cc(Nc2nc(NCCN)nc3cc[nH]c(=O)c23)cc(OC)c1`
80.7

Subsequent entry: `COc1ccc(-c2nn(C(=O)c3cc(OC)c(OC)c(OC)c3)c3cc(N)ccc23)cc1`
58.1

Subsequent entry: Cc1cccc2c3c(sc12)C(c1ccc(Cl)cc1)C(C#N)=C(/N=C/c1ccc(Cl)cc1)O3 (stereo not drawn)
52.9

Subsequent entry: `O=C(CSc1nc2ccccc2[nH]1)Nc1cccc(Cl)c1`
95.7

Subsequent entry: `N#C/C(=C\c1ccc(F)cc1)n1nc2cccc(F)c2n1`
34

Subsequent entry: `CN1CCN(Cc2ccc(NC(=O)c3ccc(C(C)(C)C)c(C#Cc4cnc5cccnn45)c3)cc2C(F)(F)F)CC1`
15

Subsequent entry: `CN1CCN(c2ccc(-c3cc4c(Nc5ccc(F)c(Cl)c5)ncnn4c3)cc2)CC1`
71.2

Subsequent entry: `CCCCC[C@H](O)C/C=C1/C(=O)C=C[C@@H]1C/C=C\CCCC(=O)O`
77.8

Subsequent entry: `CN1CCN(c2ccc(-c3ccc4ncc(C#N)c(Nc5ccc(F)c(Cl)c5)c4c3)cc2)CC1`
46.8

Subsequent entry: `COc1ccc(-c2cnc3ccccc3n2)cc1`
94.2

Subsequent entry: `C[C@]12CC[C@@H]3c4cc(OC(F)F)c(OS(N)(=O)=O)cc4CC[C@H]3[C@@H]1CC[C@@H]2O`
63.2

Subsequent entry: `Cc1ncc(C(=O)Nc2ccc(CN3CCN(C)CC3)c(C(F)(F)F)c2)cc1C#Cc1ccc(N)nc1`
12

The reported numbers originate from PubChem BioAssay (NCI).
